# TEST_DETAILS: Selectivity index, ratio of IC50 for human WI38 cells to IC50 for human HepG2 cells
# Assay type: toxicity
# TEST_SETTINGS: WI38 cells versus HepG2 cells, read-out: Ratio IC50
PARAMETER: selectivity ratio
One number for each entry.

Record selectivity ratio per entry; entries follow.
1. O=C(OC1(C(=O)Nc2ccc([N+](=O)[O-])cc2)C(=O)c2ccccc2C1=O)c1ccc(C(F)(F)F)cc1
2. O=C(Nc1ccc([N+](=O)[O-])cc1)C1(O)CCCCC1
3. CCOC(=O)c1ccccc1C(=O)OC1(C(=O)Nc2ccc([N+](=O)[O-])cc2)CCCCC1
4. O=C(OC1(C(=O)Nc2ccc([N+](=O)[O-])cc2)CCCCC1)c1ccccc1
5. O=C(OC1(C(=O)Nc2ccc([N+](=O)[O-])cc2)CCCCC1)c1ccc(C(F)(F)F)cc1
6. O=C(OC1(C(=O)Nc2ccc([N+](=O)[O-])cc2)CCCCC1)c1ccccc1[N+](=O)[O-]
7. CC1(C)CC(=O)C=C(Nc2ccc([N+](=O)[O-])cc2)C1

[4.59, 1.88, 0.746, 0.335, 6.36, 0.786, 0.478]

Batch lookup, selectivity ratio per entry.
1. CC(=O)OC1(C(=O)Nc2ccc([N+](=O)[O-])cc2)CCCCC1
2. O=C(OC1(C(=O)Nc2ccc([N+](=O)[O-])cc2)CCCCC1)c1ccc(Br)cc1
3. Cc1ccc(C(=O)OC2(C(=O)Nc3ccc([N+](=O)[O-])cc3)CCCCC2)cc1
4. O=C(Cc1ccccc1)OC1(C(=O)Nc2ccc([N+](=O)[O-])cc2)CCCCC1
5. CCC(=O)OC1(C(=O)Nc2ccc([N+](=O)[O-])cc2)CCCCC1
6. O=C(OC1(C(=O)Nc2ccc([N+](=O)[O-])cc2)CCCCC1)c1ccc([N+](=O)[O-])cc1
7. O=C(/C=C/c1ccccc1)OC1(C(=O)Nc2ccc([N+](=O)[O-])cc2)CCCCC1

1: 0.743; 2: 1.84; 3: 0.522; 4: 3.09; 5: 2.07; 6: 54; 7: 0.774

====

# System: WI-38
# TEST_DETAILS: Cytotoxicity against human WI38 cells assessed as cell growth inhibition incubated for 72 hrs by MTT assay
# Assay type: cell-based
# TEST_SETTINGS: human, wi-38, 72 h
PARAMETER: EC100

- CHEMICAL_STRING: "O=C(OC1(C(=O)Nc2ccc([N+](=O)[O-])cc2)CCCCC1)c1ccccc1I"
  ASSAY_VALUE: "0.0247 µM"
- CHEMICAL_STRING: "O=C(OC1(C(=O)Nc2ccc([N+](=O)[O-])cc2)CCCCC1)c1ccccc1[N+](=O)[O-]"
  ASSAY_VALUE: "0.0067 µM"
- CHEMICAL_STRING: "CCC(=O)OC1(C(=O)Nc2ccc([N+](=O)[O-])cc2)CCCCC1"
  ASSAY_VALUE: "0.0169 µM"
- CHEMICAL_STRING: "COc1cccc2c1C(=O)c1c(O)c3c(c(O)c1C2=O)C[C@@](O)(C(=O)CO)C[C@@H]3O[C@H]1C[C@H](N)[C@H](O)[C@H](C)O1"
  ASSAY_VALUE: "0.0121 µM"
- CHEMICAL_STRING: "CC1(C)CC(=O)C=C(Nc2ccc([N+](=O)[O-])cc2)C1"
  ASSAY_VALUE: "0.157 µM"
- CHEMICAL_STRING: "O=C(/C=C/c1ccccc1)OC1(C(=O)Nc2ccc([N+](=O)[O-])cc2)CCCCC1"
  ASSAY_VALUE: "0.0197 µM"
- CHEMICAL_STRING: "O=C(Cc1ccccc1)OC1(C(=O)Nc2ccc([N+](=O)[O-])cc2)CCCCC1"
  ASSAY_VALUE: "0.032 µM"
- CHEMICAL_STRING: "O=C(CCC(=O)OC1(C(=O)Nc2ccc([N+](=O)[O-])cc2)CCCCC1)OC1(C(=O)Nc2ccc([N+](=O)[O-])cc2)CCCCC1"
  ASSAY_VALUE: "0.02 µM"

Hey, quick one: what's EC100 for each of these?
1. COC1(Nc2ccc([N+](=O)[O-])cc2)C(=O)c2ccccc2C1=O
2. O=C(OC1(C(=O)Nc2ccc([N+](=O)[O-])cc2)C(=O)c2ccccc2C1=O)c1ccc(C(F)(F)F)cc1
3. CCOC(=O)c1ccccc1C(=O)OC1(C(=O)Nc2ccc([N+](=O)[O-])cc2)CCCCC1

["0.043 µM", "0.635 µM", "0.122 µM"]

// each listed molecule needs a value for EC100
1. Cc1ccc(C(=O)OC2(C(=O)Nc3ccc([N+](=O)[O-])cc3)CCCCC2)cc1
2. CC(=O)Oc1ccccc1C(=O)OC1(C(=O)Nc2ccc([N+](=O)[O-])cc2)CCCCC1
3. O=C(OC1(C(=O)Nc2ccc([N+](=O)[O-])cc2)CCCCC1)c1ccccc1

["0.0064 µM", "0.0355 µM", "0.148 µM"]

Required: EC100, one value per molecule below.
1. O=C(OC1(C(=O)Nc2ccc([N+](=O)[O-])cc2)CCCCC1)c1ccc(C(F)(F)F)cc1
2. COc1ccc(C(=O)OC2(C(=O)Nc3ccc([N+](=O)[O-])cc3)CCCCC2)cc1

0.0398 µM
0.0178 µM
